Origin of values: paper PMC10397247

Molecular target: T1, 4H3605-AA
T1 chain: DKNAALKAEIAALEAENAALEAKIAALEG
Test: two-hybrid library CCmax;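 further: natural log of median RNA to DNA barcode read ratio; higher means stronger binding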
Conditions: mean of both orientations
measurement kind: interaction score
Please reply with the value in numeric form only.

*Q* # return recorded interaction score for input DKIAALEAENAALEAKNAALKAKIAALKG [4H2238-AA]
*A* -0.657

*Q* Kindly indicate its recorded interaction score. Item: DKIAALKAENAALEAKIAALEAKIAALKG [4H2726-AA]
*A* -0.283

*Q* Report interaction score for DEIAALEAKIAALKAEIAALEAKNAALEG [4H327-AA]
*A* -1.29

*Q* Indicate its recorded interaction score; the binder in question is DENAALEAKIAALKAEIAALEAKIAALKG [4H1350-AA]
*A* -0.433

*Q* Using known records, supply interaction score for DENAALEAEIAALEAKNAALKAEIAALKG [4H1082-AA]
*A* 1.35

*Q* Give the reported value of interaction score for this record: DKIAALEAKNAALKAENAALEAEIAALEG [4H2513-AA]
*A* -1.25

*Q* Fill in interaction score for record DENAALEAENAALEAKIAALKAKIAALKG [4H1198-AA]
*A* 0.0472
